Molecular target: Aβ(1-42) aggregate (Homo sapiens)
Construct: Amyloid β protein (Human, 1-42) [TFA form] was purchased from Peptide Institute, Inc; purchased Peptide Institute, Inc
Sequence (P05067 672-713 limits assumed): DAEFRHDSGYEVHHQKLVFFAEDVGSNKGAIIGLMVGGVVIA
Assay: In-vitro binding inhibition experiment using Aβ(1-42) aggregate (Reference Example 2)
Conditions: ligand [^125I]4-dimethylamino-4′-iodochalcone; compound numbers of Reference Example 2; read-out: Inhibition constant (Ki, nM) (mean ± SE)
readout type: Ki (nM)

{"molecule": "CN(C)c1ccc(/C=C/C(=O)c2ccc(OCCF)cc2)cc1 [Compound 3 in Reference Example 2]", "experimental value": 29}

a: CN(C)c1ccc(/C=C/C(=O)c2ccc(OCCOCCF)cc2)cc1 [Compound 5 in Reference Example 2]
b: Nc1ccc(/C=C/C(=O)c2ccc(OCCOCCF)cc2)cc1 [Compound 16 in Reference Example 2]
**Query** Identify the entry with the smaller Ki: a or b . Write the label of whichever entry you select.
**Result** a
